# Test system: Wild type
# PROCEDURE_SUMMARY: S. aureus survival, RN4220 and DeltatarO strains – OD600, teichoic acid synthesis inhibitors, primary screen (AID 463173)
# EXPERIMENTAL_SETUP: S. aureus RN4220 wild type/DeltatarO growth, OD600, 18 h, stronger effect = lower value, screened at 18.75 µg/mL (by protocol)
The whole screen tested about 52,000 compounds, of which about 1,700 (3.3%) were called active. Shown is part of a subset that was picked to be rich in actives.
Our labelling divides records by survival into ranges: low (below 60%), intermediate (60% to below 80%), high (80% or more)

Assign a bin to Cc1nn(-c2nc(-c3ccc(F)cc3)cc(C(F)(F)F)n2)c(C)c1Br low

Classify this molecule: COc1ccccc1C(=O)Nc1ccc(C(=O)OCc2cc(=O)n3ccsc3n2)cc1 intermediate

Hello team, could you let me know which band the following molecule falls into: Cc1ccc(Sc2c(C)nn(C(C)(C)C)c2OC(=O)CC(C)C)cc1 low

Which survival band matches Cc1cccc(C(=O)OCc2cc(=O)n3ccsc3n2)c1 ? intermediate

Which survival category applies to CC1=C(C(=O)NCc2cccc(F)c2)C2(CCCCCC2)OC1=O here? intermediate

Which category does the recorded survival put CCCn1c(=O)c2sccc2n2c(CCCC(=O)NCCOC)nnc12 in? high

Class for Cn1c(Cc2cccs2)nnc1SCC(=O)N1CCCc2ccccc21 ? high

For the record Cc1nn(-c2nc(-c3ccccc3)cc(C(F)(F)F)n2)c(C)c1Cl , report the class its survival corresponds to. low

Band of CCCCNC(=O)C1CCN(S(=O)(=O)c2ccc3c(ccn3CC)c2)CC1 ? high

For CCCCOc1ccc(Cn2c(=O)oc3ccc(C)cc32)cc1 , which survival bin applies? low

Hi there! Could you help me figure out the category for Cc1ccccc1C(=O)Nc1cccc(C(=O)OCc2cc(=O)n3ccsc3n2)c1 please? intermediate

Which survival band matches Cc1ccsc1CN(C(=O)c1ccc(OCC(C)C)cc1)C1CCS(=O)(=O)C1 (centres undefined) ? high

Which category does the recorded survival put Cc1[nH]c2ccccc2c1SCCNC(=O)c1ccc(F)cc1 in? intermediate

Which class holds CC1=NN(C(C#N)c2ccccc2)C(C)(C)C1 (centres undefined) ? high

Form field 'band' for COc1ccc(-c2cc(C(F)(F)F)nc(-n3nc(C(F)(F)F)cc3C)n2)cc1 low

----------
# Tested on: Wild type
# PROCEDURE_SUMMARY: S. aureus survival, RN4220 and DeltatarO strains – OD600, teichoic acid synthesis inhibitors, primary screen (AID 463173)
# EXPERIMENTAL_SETUP: S. aureus RN4220 wild type/DeltatarO growth, OD600, 18 h, stronger effect = lower value, screened at 18.75 µg/mL (by protocol)
In all, about 52,000 compounds went through this assay and about 1,700 (3.3%) were called active. For the sample, actives were picked, then their nearest neighbours and some compounds at random.
MEASUREMENT_TYPE: survival (%)
Respond numerically; units are % and should not be typed.

Give its survival value. Item: CN1C(C(=O)NC(C)(C)C)=CC(c2ccc3c(c2)OCO3)=NS1(=O)=O 84

# get_value(readout='survival', item= Cc1ccc(NC(=O)C2CCCN2S(=O)(=O)c2ccc3c(c2)CCCC(=O)N3)cc1Cl (stereo not drawn) ) 113

// query survival value for entry COc1cc(Cl)c(C)cc1NC(=O)CC(c1ccc(F)cc1)N1Cc2ccccc2C1=O (stereo not drawn) -2

Record request: survival value, item Cc1ccc(NC(=O)CC(c2ccc(F)cc2)N2Cc3ccccc3C2=O)cc1C (stereo not drawn) 88

For the compound Cc1ccccc1CNC(=O)C(=O)NCC(c1cccs1)S(=O)(=O)c1ccc(Cl)cc1 (stereo not drawn) , what survival is on record? 74

What value of survival has been reported for the following compound? COc1ccc(-c2cc(C(=O)Nc3sc4c(c3C#N)CCCC4)no2)cc1OC 80

Fill in: survival of Cc1cc(C)cc(NC(=O)CN2C(=O)COc3ccc(S(=O)(=O)Nc4ccccc4)cc32)c1 is ___ 98

survival for Cc1ccc(C(C)C)c(OCC(=O)Nc2cccc(-c3nc4ncccc4o3)c2)c1 ? 2

Give its survival value. Item: O=C1CN(C(=O)c2ccccc2C(F)(F)F)C(c2ccccc2)c2cc(F)ccc2N1 (stereo not drawn) 66

Given the entry CN(C)CCn1c2c(c(SCC(=O)Nc3ccc(F)cc3F)nc1=O)CCC2 , report its measured survival. 83

What does the record list as survival for Cc1oc2ccc(O)c(CN(C)Cc3ccccc3)c2c1C(=O)Nc1cccc(C(F)(F)F)c1 ? 10

Given CCCCNC(=O)c1c(C)oc2ncn(CC(C)C)c(=O)c12 , state its recorded survival. 1

Query (compound): Cc1cccc(NC(=O)c2c(C)oc3ncn(CC(C)C)c(=O)c23)n1 ; field requested: survival 71

----------
# Tested on: Wild type
# PROCEDURE_SUMMARY: S. aureus survival, RN4220 and DeltatarO strains – OD600, teichoic acid synthesis inhibitors, primary screen (AID 463173)
# EXPERIMENTAL_SETUP: S. aureus RN4220 wild type/DeltatarO growth, OD600, 18 h, stronger effect = lower value, screened at 18.75 µg/mL (by protocol)
Among all 52,000 compounds or so, about 1,700 (3.3%) were called active. The sample as a whole holds a higher share of actives than the screen did.
Field: survival. Provide a value for each of the compounds that follow.
Answer format: numeric, % implied, no suffix.

Field request: survival | item: CCCCOC(=O)c1ccc(NC(=O)c2cc(=O)c3ccccc3o2)cc1 93

Return reported survival; argument: COc1cc2c(cc1OC)n(CC(=O)c1cccc(Cl)c1)c(=O)n1nc(CCn3nc(C)cc3C)nc21 74

Entry under review: CCOC(=O)c1cnc2c(OC)cccc2c1Nc1cccc(O)c1 . Reported survival? 73

Item under review: COc1ccc(-c2noc(CC(=O)N(C)c3cccc(C)c3)n2)cc1 . Reported survival? 83

Need survival, item Oc1ccccc1C(C#Cc1ccccc1)N1CCOCC1 (stereo not given) 110

For CC(C)CCNC(=O)Nc1ccc2c(c1)N(C)C(=O)c1ccccc1S2 , what is its reported survival? 135

So what's the measured survival for this one? COc1ccc(S(=O)(=O)NCCc2csc3nc(-c4ccccc4)nn23)cc1OC 71

Record request: survival value, item CCc1ccc(S(=O)(=O)NCCc2csc3nc(-c4ccccc4)nn23)s1 129

Field request: survival | item: CCC(=O)n1nc(-c2ccc(OC)cc2)nc1SC 100

Can you look up the measured survival of COc1ccc(OC)c(S(=O)(=O)NCCc2csc3nc(-c4ccccc4)nn23)c1 for me? -3

Using the record for Cc1c(Cl)cccc1-c1ccc(C(=O)Nc2ccc(F)cc2)o1 , report its survival. -1

Query: survival; subject: CCS(=O)(=O)NCCc1csc2nc(-c3ccc(C)cc3)nn12 59

What value of survival has been reported for the following compound? CCOC(=O)c1cnc2c(ccc3ccccc32)c1Nc1ccc(OC)cc1OC 6

Entry Cc1ccc(Nc2c3c(nc4nc(-c5cccs5)nn24)CCCC3)cc1F has what survival? -3

Requested field: survival. Item: Cc1ccc(Cl)cc1-n1ncc2c(NCc3ccc(F)cc3)ncnc21 73

----------
# System: Wild type
# PROCEDURE_SUMMARY: S. aureus survival, RN4220 and DeltatarO strains – OD600, teichoic acid synthesis inhibitors, primary screen (AID 463173)
# EXPERIMENTAL_SETUP: S. aureus RN4220 wild type/DeltatarO growth, OD600, 18 h, stronger effect = lower value, screened at 18.75 µg/mL (by protocol)
About 1,700 (3.3%) of roughly 52,000 compounds were called active. This excerpt belongs to a sample that is enriched for actives.
Cut-off 80% on survival: below means class 1, at or above means class 0.

hey, is survival for CCc1ccc(-c2cc(C)no2)cc1S(=O)(=O)Nc1cc(OC)c(OC)c(OC)c1 lower than 80% or not? class 0

Is 80% strictly greater than the molecule's reported survival? molecule: CCOCCc1nn2c(=O)cc(COC(=O)c3ccc(NC(=O)c4ccc(F)cc4)cc3)nc2s1 class 1

Given CCOCCc1nnc(NC(=O)C(=O)c2cc(C)n(-c3ccc(C)cc3C)c2C)s1 , is recorded survival strictly lower than 80%? class 0

Please check: survival for Cc1cccc(NC(=O)c2c(Br)sc3c2CCCC3)c1 , strictly under 80% or not? class 1

State whether 80% exceeds survival recorded for O=C(Cc1ccccc1)Nc1sc2c(c1C(=O)Nc1cccc(Cl)c1)CCCCC2 . class 0

Hi there! Is survival for CC(OC(=O)c1cc2sccc2n1C)C(=O)NCC1CCCO1 (stereo not given) below 80%, do you know? class 0

In plain terms, does O=C(CSc1nc2c([nH]c3ccccc32)c(=O)n1-c1ccccc1)c1ccccc1 come in under 80% for survival? class 1

For CCOCCc1nn2c(=O)cc(COC(=O)CNC(=O)c3cccc(C)c3)nc2s1 , is the recorded survival below the cut-off of 80%? class 0

Input Cc1c(C(C)(C)C)sc(=N)n1C ; condition: survival strictly below 80%. Does it hold? class 0

# TODO verify survival < 80% strictly for this molecule: Cc1ccccc1-c1nnc(CN2CCN(c3cc(Cl)ccc3C)CC2)o1 class 0

Take the molecule CCOCCc1nn2c(=O)cc(COC(=O)c3ccc4c(c3)OCO4)nc2s1 and say whether its survival is less than 80%. class 0

Is the reported survival for COc1ccccc1NC(=O)COC(=O)CC(C)(C)CC1=NS(=O)(=O)c2ccccc2N1 strictly below 80%? class 1

Lab note: confirm whether the reported survival for this molecule is below 80%, equality not counting. molecule: CC1CCN(S(=O)(=O)c2cc(C(=O)Nc3ccc(Br)cc3F)n(C)c2)CC1 class 1

Please state whether survival is below 80% for CCc1ccc(-c2cc(C)no2)cc1S(=O)(=O)Nc1ccc(Cl)cn1 class 1

Does O=C(CSc1nc(-c2ccccc2F)nc2cc(=O)[nH]n12)Nc1cccc(C(F)(F)F)c1 have survival strictly under 80%? class 1
